From: ChEMBL document CHEMBL2218924

Exercise: for every item that follows, state its recorded residual activity.
Biological target: Tyrosine-protein kinase ABL2 (Homo sapiens) (UniProt P42684)
Sequence (P42684 whole entry): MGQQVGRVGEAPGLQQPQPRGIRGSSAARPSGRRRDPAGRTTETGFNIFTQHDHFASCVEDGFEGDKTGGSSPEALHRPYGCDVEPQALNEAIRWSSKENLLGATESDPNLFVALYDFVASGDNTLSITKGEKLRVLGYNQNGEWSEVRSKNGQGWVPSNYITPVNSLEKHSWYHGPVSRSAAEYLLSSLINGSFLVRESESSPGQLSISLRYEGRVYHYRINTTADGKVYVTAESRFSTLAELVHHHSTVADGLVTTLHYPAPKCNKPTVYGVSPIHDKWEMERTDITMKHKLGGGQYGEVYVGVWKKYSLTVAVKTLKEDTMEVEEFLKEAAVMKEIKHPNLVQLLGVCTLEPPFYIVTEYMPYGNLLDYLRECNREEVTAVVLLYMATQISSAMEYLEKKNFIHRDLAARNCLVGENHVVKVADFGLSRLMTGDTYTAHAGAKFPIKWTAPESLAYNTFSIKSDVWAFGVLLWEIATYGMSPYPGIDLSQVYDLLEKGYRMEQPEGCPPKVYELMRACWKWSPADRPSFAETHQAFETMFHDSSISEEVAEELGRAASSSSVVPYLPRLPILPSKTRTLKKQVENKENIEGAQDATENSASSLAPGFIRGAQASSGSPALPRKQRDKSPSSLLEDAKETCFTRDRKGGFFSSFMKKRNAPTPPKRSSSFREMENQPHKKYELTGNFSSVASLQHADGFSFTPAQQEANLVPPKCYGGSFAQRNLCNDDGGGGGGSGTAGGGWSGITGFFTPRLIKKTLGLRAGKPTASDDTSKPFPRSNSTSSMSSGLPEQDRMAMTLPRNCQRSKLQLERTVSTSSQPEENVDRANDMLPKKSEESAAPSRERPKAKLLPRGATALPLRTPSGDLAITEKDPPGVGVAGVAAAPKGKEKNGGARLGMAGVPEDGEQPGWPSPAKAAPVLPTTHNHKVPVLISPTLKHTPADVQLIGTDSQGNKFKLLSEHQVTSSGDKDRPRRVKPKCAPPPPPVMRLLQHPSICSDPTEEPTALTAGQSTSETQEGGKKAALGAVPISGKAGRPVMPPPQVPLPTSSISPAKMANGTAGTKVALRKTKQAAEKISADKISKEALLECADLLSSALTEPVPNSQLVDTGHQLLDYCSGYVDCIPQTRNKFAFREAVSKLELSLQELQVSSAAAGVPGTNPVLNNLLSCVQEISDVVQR
Details: at 10 µM
One number for each entry, in %.

See these solved cases before continuing.
1. Ic1cccc(CSc2nnc(-c3ccncc3)o2)c1 ... 71
2. CO[C@@H]1[C@H](N(C)C(=O)c2ccccc2)C[C@H]2O[C@]1(C)n1c3ccccc3c3c4c(c5c6ccccc6n2c5c31)C(=O)NC4 ... 45
3. CC(C)n1cnc2/c(=N/c3cccc(Cl)c3)nc(NCCO)[nH]c21 ... 10
4. O=C1Nc2ccccc2/C1=C1/Nc2ccccc2/C1=N\OCCC(O)CO (configuration not stated) ... 18
5. Nc1cccc(-c2cc3c(Oc4cccc(O)c4)ncnc3[nH]2)c1 ... -2
6. N#Cc1cnc2cnc(NCc3cccnc3)cc2c1Nc1ccc(F)c(Cl)c1 ... 55
7. Oc1ccc(Nc2nc(-c3ccc(Cl)cc3)cs2)cc1 ... 72
8. CNc1cc2c(Nc3cccc(Br)c3)ncnc2cn1 ... 79

Give residual activity for each listed item.
1. COc1cccc(-c2cc(=O)c3ccccc3o2)c1N
2. O=c1cc(-c2cccc3c2Sc2ccccc2S3)oc(N2CCOCC2)c1
3. CC#CC(=O)Nc1cc2c(Nc3ccc(F)c(Cl)c3)ncnc2cn1
4. Cn1nc2c3c(cccc31)C(=O)c1ccccc1-2
5. CC(C)n1cnc2c(NCc3ccccc3)nc(NCCCO)nc21
6. O=C1NC(=O)c2c1c1c3ccccc3[nH]c1c1[nH]c3cc(Br)ccc3c21
7. N#C/C(=C(\N)Sc1ccc(N)cc1)c1ccccc1C(F)(F)F

# output
[74, 90, 74, 86, 89, 87, 82]

List the reported residual activity of each molecule below.
1. CC[n+]1c(/C=C/N(C)c2ccccc2)n(-c2ccccc2)c2ccc(-c3nc4ccccc4s3)cc21
2. O=C(O)c1ccc2c3c1cccc3c(=O)n1c3ccccc3nc21
3. CN(C)CCCn1cc(C2=C(c3c[nH]c4ccccc34)C(=O)NC2=O)c2ccccc21
4. Nc1ccc2ncnc(NCCc3ccc(Oc4ccccc4)cc3)c2c1
5. Oc1c2ccccc2c2c3c(cccc13)N=N2
6. COc1ccc(CNc2nc(N(CCO)CCO)nc3c2ncn3C(C)C)cc1
7. O=C(Nc1cccc(Nc2cc(Nc3cccc(C(F)(F)F)c3)ncn2)c1)C1CC1

# output
1: 85; 2: 74; 3: 76; 4: 78; 5: 72; 6: 76; 7: 90

---

Target: Serine/threonine-protein kinase MRCK alpha (Homo sapiens)
Settings: at 10 µM
Provide the recorded residual activity for the entries that follow.
Give bare numbers, in %.

Answered examples (5):
1) Ic1cccc(CSc2nnc(-c3ccncc3)o2)c1 ... 87
2) COc1cccc(-c2cc(=O)c3ccccc3o2)c1N ... 96
3) Nc1ccc2ncnc(NCCc3ccc(Oc4ccccc4)cc3)c2c1 ... 124
4) N#Cc1cnc2cnc(NCc3cccnc3)cc2c1Nc1ccc(F)c(Cl)c1 ... 9
5) CC(=O)O/N=C1\C(=C2\C(=O)Nc3cc(Br)ccc32)Nc2ccccc21 ... 101

# input State its residual activity on Serine/threonine-protein kinase MRCK alpha (Homo sapiens): c1ccc(-c2n[nH]c3c2oc2ccccc23)cc1
# output 116

---

Please provide measured residual activity for the entries that follow.
Biological target: Serine/threonine-protein kinase Sgk1 (Homo sapiens)
Settings: at 1 µM
One number for each entry, in %.

# example entries with known answers
1) CC(=O)c1ccc(N2CCOCC2)cc1O ... 109
2) Cc1ccc(S(=O)(=O)/C=C/C#N)cc1 ... 76
3) Oc1c2ccccc2c2c3c(cccc13)N=N2 ... 60

Give residual activity for each of the items listed below.
1. CC(C)n1cnc2/c(=N/c3cccc(Cl)c3)nc(NCCO)[nH]c21
2. Oc1ccc(Nc2nc(-c3ccc(Cl)cc3)cs2)cc1
3. N#C/C(=C(\N)Sc1ccc(N)cc1)c1ccccc1C(F)(F)F
4. COc1cc2ncc(-c3ccccc3)nc2cc1OC

# output
1. 89
2. 123
3. 81
4. 98

---

Task for the reader: assign each of the following molecules its reported residual activity.
Target: Serine/threonine-protein kinase BRSK2 (Homo sapiens)
Conditions: at 10 µM
Answers are plain numbers, in %.

# return residual activity for each item in the list
1. O=C1NC(=O)c2cc(Nc3ccc(F)cc3)c(Nc3ccc(F)cc3)cc21
2. c1ccc(-c2n[nH]c3c2oc2ccccc23)cc1
3. O=C1Nc2ccc(Br)cc2/C1=C\c1cc2c([nH]1)CCCC2
4. CN(C)CCCn1cc(C2=C(c3c[nH]c4ccccc34)C(=O)NC2=O)c2ccccc21
5. COc1cc2ncnc(Nc3ccc(NC(=O)c4ccccc4)cc3)c2cc1OC
6. O=C1c2ccccc2-[n+]2ccc3c([nH]c4ccccc43)c21
7. NC(=O)c1ccc2[nH]c(-c3ccc(Oc4ccc(Cl)cc4)cc3)nc2c1

# output
1: 92; 2: 73; 3: 113; 4: 22; 5: 99; 6: 89; 7: 88

---

Target: Serine/threonine-protein kinase 33 (Homo sapiens) (UniProt Q9BYT3)
Sequence (Q9BYT3 whole entry, looked up): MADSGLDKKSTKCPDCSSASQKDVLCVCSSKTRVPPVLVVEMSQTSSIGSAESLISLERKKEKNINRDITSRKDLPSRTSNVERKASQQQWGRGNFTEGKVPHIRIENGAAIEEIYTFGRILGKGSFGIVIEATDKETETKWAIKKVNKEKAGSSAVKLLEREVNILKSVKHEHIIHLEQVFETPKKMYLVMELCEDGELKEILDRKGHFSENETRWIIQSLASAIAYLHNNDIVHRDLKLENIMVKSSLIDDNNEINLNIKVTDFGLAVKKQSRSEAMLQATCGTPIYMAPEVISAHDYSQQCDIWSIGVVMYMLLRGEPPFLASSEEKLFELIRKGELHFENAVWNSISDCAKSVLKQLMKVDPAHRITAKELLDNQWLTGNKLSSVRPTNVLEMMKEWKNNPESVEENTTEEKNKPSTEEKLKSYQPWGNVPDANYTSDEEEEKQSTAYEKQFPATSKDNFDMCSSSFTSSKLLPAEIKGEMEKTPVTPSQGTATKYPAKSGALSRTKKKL
Conditions: at 10 µM
Where residual activity equals or exceeds 90%, the correct label is Fulfilled; where it does not, the label is Not fulfilled.

Consider the following illustrative entries.
1) CN(C)CCCn1cc(C2=C(c3c[nH]c4ccccc34)C(=O)NC2=O)c2ccccc21 ... Not fulfilled
2) CN(C)c1ccc(/C=C2\C(=O)Nc3ccccc32)cc1 ... Not fulfilled
3) CC#CC(=O)Nc1cc2c(Nc3ccc(F)c(Cl)c3)ncnc2cn1 ... Fulfilled

# input Is reported residual activity greater than or equal to 90% here: CCC(=O)Nc1ccc2ncnc(Nc3cccc(Br)c3)c2c1
# output Fulfilled

---

Target: Tyrosine-protein kinase Yes (Homo sapiens)
Details: at 1 µM
Property Label: residual activity (%)
Numbers only, in %.

Examples with answers:
1. c1ccc(-c2n[nH]cc2-c2ccnc3ccccc23)nc1 ... 98
2. CC(C)n1cnc2/c(=N/c3cccc(Cl)c3)nc(NCCO)[nH]c21 ... 27
3. CO[C@H]1[C@@H](OC)C[C@H](C)[C@@H](OC)C2=CC(=O)C=C(NC(=O)/C(C)=C/C=C/[C@H](OC)[C@@H](OC(N)=O)/C(C)=C/[C@@H]1C)C2=O ... 101
4. N#CCCc1ccc2c(c1)-c1[nH]c3ccc([N+](=O)[O-])cc3c1CC(=O)N2 ... 9
5. Cc1cc(Nc2nc(-c3ccccc3)nc3ccccc23)n[nH]1 ... 6

Hi, could you look up residual activity for each item in my list?
1. COc1cc2ncnc(Nc3ccc(O)c(Br)c3)c2cc1OC
2. NC(=O)c1ccc2[nH]c(-c3ccc(Oc4ccc(Cl)cc4)cc3)nc2c1
3. Nc1n[nH]c2nnc(-c3c(-c4ccccc4)nn4ccccc34)cc12
4. O=C1Nc2ccc(Br)cc2/C1=C\c1cc2c([nH]1)CCCC2
5. C[C@@H](N)[C@H]1CC[C@H](C(=O)Nc2ccncc2)CC1

# output
[25, 112, 93, 79, 108]

---

Consider the following compounds; for each one, report its residual activity.
Molecular target: Activin receptor type-1B (Homo sapiens)
Details: at 1 µM
One number for each entry, in %.

1) COc1ccc(S(=O)(=O)N(CCO)c2ccccc2CN(C)C/C=C/c2ccc(Cl)cc2)cc1 ... 96
2) CN(C)CCCn1cc(C2=C(c3c[nH]c4ccccc34)C(=O)NC2=O)c2ccccc21 ... 119
3) Cc1cc(Nc2nc(-c3ccccc3)nc3ccccc23)n[nH]1 ... 96
4) CO[C@H]1[C@@H](OC)C[C@H](C)[C@@H](OC)C2=CC(=O)C=C(NC(=O)/C(C)=C/C=C/[C@H](OC)[C@@H](OC(N)=O)/C(C)=C/[C@@H]1C)C2=O ... 112
5) CCN(CC)CCCCN1c2ccccc2Oc2ccc(Cl)cc21 ... 136
6) CCOc1cc2ncnc(Nc3cccc(Br)c3)c2cc1OCC ... 125
7) Cc1cncc2cccc(S(=O)(=O)N3CCCN(C(=O)CN)C[C@H]3C)c12 ... 137
8) O=C1NC(=O)/C(=C\c2ccc3nccnc3c2)S1 ... 115

Field: residual activity. Fill in for each record below.
1. Cn1cc(/C=C2\C(=O)Nc3ccc(S(N)(=O)=O)cc32)c2ccccc21
2. O=C(O)c1ccc2c3c1cccc3c(=O)n1c3ccccc3nc21
3. Cc1nc2cc3nc(-c4cccs4)cnc3cc2n1C
4. C[C@@H](N)[C@H]1CC[C@H](C(=O)Nc2ccncc2)CC1

# output
1. 118
2. 110
3. 123
4. 82

I have 8 compounds here; please give me residual activity for each one.
1. Oc1ccc(Nc2nc(-c3ccc(Cl)cc3)cs2)cc1
2. O=C1c2ccccc2-[n+]2ccc3c([nH]c4ccccc43)c21
3. N#C/C(=C(\N)Sc1ccc(N)cc1)c1ccccc1C(F)(F)F
4. COc1cccc(-c2cc(=O)c3ccccc3o2)c1N
5. O=Nc1c(-c2c(O)[nH]c3ccccc23)[nH]c2ccccc12
6. O=c1cc(-c2cccc3c2Sc2ccccc2S3)oc(N2CCOCC2)c1
7. CNc1cc2c(Nc3cccc(Br)c3)ncnc2cn1
8. COc1cc2ncnc(Nc3ccc(O)c(Br)c3)c2cc1OC

# output
1: 104; 2: 110; 3: 108; 4: 111; 5: 104; 6: 88; 7: 121; 8: 111
